- Tested on: Saccharomyces cerevisiae;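 also: PSI is a weighted mean of sequencing reads over stability bins, variants kept only with over 10 reads, mCherry proximal and sfGFP distal, peptide attached via GGGS linker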
- Measurement protocol: protein stability index of tFT-peptide fusion (C-terminal peptide) (PSI (0-1 scale)); higher = more stable (slower turnover)
- Condition details: genetic background: wild type; temperature: 30 C
Reported protein stability index values for a set of sequences
Hey, just send me the number, nothing else.

Sample answers from the record:
[[record]]
sequence_input = "WLVRNVVGGGLC"
quantitative_result = 0.701

[[record]]
sequence_input = "PSFRTGLPPSDP"
quantitative_result = 0.681

[[record]]
sequence_input = "NPPAPPAPHLST"
quantitative_result = 0.685

[[record]]
sequence_input = "SRVVHSHRSFRP"
quantitative_result = 0.684


# evaluate next
Entry DSPPHPPPASAP has what protein stability index?
0.714
